MEASUREMENT TARGET: ARHGEF12, Q9NZN5-2
Sequence (Q9NZN5 other isoform, or with tags, fused parts or gaps): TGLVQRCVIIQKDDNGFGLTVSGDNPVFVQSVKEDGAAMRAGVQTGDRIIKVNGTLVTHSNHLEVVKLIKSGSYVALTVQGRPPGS
METHOD NOTES: holdup assay
Set-up: key: below the threshold = too weak to quantify, mostly under pKd 3.1 to 4
STATED CONDITIONS: plain residues with an end cap or a label only (N-terminal biotin on a linker: ado-ado)
Kindly state pKd for each of the entries shown.
API doc: respond with a numeric literal and nothing else, no unit.

The binder listed as NTLNRKTTPV [CACNG8, Q8WXS5] has a reported pKd of 4.05

The binder listed as NTANRRTTPV [CACNG2, Q9Y698] has a reported pKd of 3.93

The binder listed as EIPAQSPTCV [FZD10, Q9ULW2] has a reported pKd of 3.91

The binder listed as PSHPRLQTHV [KIRREL2, Q6UWL6] has a reported pKd of 4.26

The binder listed as KKMLQRRTLL [OR8G1, Q15617] has a reported pKd of 4.51
